System: Human endometrial stromal cells (hESC)
experiment description: Cytotoxicity on hESC (CCK8 cell viability)
Type: cell-based
condition summary: hESC, six concentration gradients, read-out: IC50 (inhibition of hESC proliferation)
Catalogue of IC50 values
Report as a plain number; the unit µM is understood.

compound	system	unit label	IC50
O=C1c2c(O)cc(O)cc2OC(c2ccc(O)c(O)c2)C1O (stereo not drawn) [taxifolin]	Human endometrial stromal cells (hESC)	µM	263

Short answer on Human endometrial stromal cells (hESC) for O=C1C[C@@H](c2ccc(O)c(O)c2)Oc2cc(O)cc(O)c21 [eriodictyol] , IC50: 233

* * *

System: hESC with D-Gal-induced damage
experiment description: Protection against D-Gal-induced damage in hESC (CCK-8)
Assay type: cell-based, Human
condition summary: 200 mM D-Gal 24 h, then compound 24 h at two concentrations: quercetin 50/25 μM, taxifolin 260/130 μM, kaempferol 400/200 μM, eriodictyol 230/115 μM, isorhamnetin 500/250 μM
readout: improvement of cellular viability damage caused by D-Gal

compound	result
O=C1C[C@@H](c2ccc(O)c(O)c2)Oc2cc(O)cc(O)c21 [eriodictyol]	effective improvement
O=C1c2c(O)cc(O)cc2OC(c2ccc(O)c(O)c2)C1O (centres unmarked) [taxifolin]	effective improvement
O=c1c(O)c(-c2ccc(O)cc2)oc2cc(O)cc(O)c12 [kaempferol]	effective improvement

Hello, the source for this data is paper PMC10811918, in case you need it.
